Data origin: ChEMBL document CHEMBL5120905

tgt: Adenosine receptor A2b (Homo sapiens)
Sequence (P29275 whole entry): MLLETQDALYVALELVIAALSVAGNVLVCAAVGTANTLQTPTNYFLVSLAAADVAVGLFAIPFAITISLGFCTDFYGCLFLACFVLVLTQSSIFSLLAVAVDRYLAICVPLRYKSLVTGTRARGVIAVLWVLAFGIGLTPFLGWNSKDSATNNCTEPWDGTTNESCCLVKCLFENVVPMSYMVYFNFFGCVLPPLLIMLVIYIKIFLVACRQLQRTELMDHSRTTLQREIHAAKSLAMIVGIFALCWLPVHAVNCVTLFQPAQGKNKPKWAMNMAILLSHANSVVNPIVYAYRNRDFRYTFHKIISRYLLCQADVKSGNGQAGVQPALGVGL
test_details: Agonist activity at human A2B receptor expressed in Flp-In-CHO cells assessed as cAMP accumulation incubated for 10 mins in presence of forskolin by LANCE cAMP assay
endpoint: EC50 (nM)
Kindly answer with a numeric value in nM, unit omitted.

Find the measured EC50 of Nc1sc(-c2ccc(C(=O)NCCc3ccc(CCNc4ncnc5c4ncn5[C@@H]4O[C@H](CO)[C@@H](O)[C@H]4O)cc3)cc2)c(-c2cccc(C(F)(F)F)c2)c1C(=O)c1ccccc1 with Adenosine receptor A2b (Homo sapiens) as test system.
52.5

====

tgt: Adenosine receptor A1 (Homo sapiens)
Sequence (P30542 whole entry): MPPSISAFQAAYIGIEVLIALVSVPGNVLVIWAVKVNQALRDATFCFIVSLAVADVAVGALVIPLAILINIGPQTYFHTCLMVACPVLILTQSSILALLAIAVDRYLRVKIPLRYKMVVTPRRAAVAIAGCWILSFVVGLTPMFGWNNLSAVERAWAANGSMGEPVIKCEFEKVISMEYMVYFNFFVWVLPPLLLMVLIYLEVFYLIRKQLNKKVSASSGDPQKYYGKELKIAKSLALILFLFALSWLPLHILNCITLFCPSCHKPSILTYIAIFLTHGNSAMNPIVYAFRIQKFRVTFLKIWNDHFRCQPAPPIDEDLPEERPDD
test_details: Agonist activity at human A1 receptor expressed in Flp-In-CHO cells assessed as stimulation of calcium mobilization by calcium mobilization assay
Assay type: functional, cell-based
endpoint: EC50

Fill in reported EC50 for this entry: Nc1sc(-c2ccc(C(=O)NCCc3ccc(CCNc4ncnc5c4ncn5[C@@H]4O[C@H](CO)[C@@H](O)[C@H]4O)cc3)cc2)c(-c2cccc(C(F)(F)F)c2)c1C(=O)c1ccccc1
> 10 µM
